- subject-of-test: Histone deacetylase 1 (Mus musculus, UniProt O09106)
- Sequence (O09106 whole entry): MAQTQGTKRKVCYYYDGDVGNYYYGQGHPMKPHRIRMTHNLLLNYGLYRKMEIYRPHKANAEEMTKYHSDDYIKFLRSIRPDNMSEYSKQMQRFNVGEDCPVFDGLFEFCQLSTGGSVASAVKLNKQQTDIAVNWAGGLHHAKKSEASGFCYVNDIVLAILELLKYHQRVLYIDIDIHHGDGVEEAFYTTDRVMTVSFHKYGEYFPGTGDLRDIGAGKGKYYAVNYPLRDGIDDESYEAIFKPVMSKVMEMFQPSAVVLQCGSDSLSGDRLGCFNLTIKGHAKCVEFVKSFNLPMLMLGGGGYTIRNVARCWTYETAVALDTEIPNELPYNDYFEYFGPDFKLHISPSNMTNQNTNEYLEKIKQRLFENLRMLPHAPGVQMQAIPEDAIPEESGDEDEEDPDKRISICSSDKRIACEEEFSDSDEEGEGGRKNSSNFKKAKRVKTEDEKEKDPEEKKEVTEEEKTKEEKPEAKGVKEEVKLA
- assay-remarks: Inhibition of mouse Histone deacetylase 1 (HDAC1) receptor
pIC50: −log10 of the molar value.
experimental-endpoint: pIC50

A: Cn1cc(/C=C/C(=O)NO)cc1C(=O)c1ccccc1
B: Cn1c(/C=C/C(=O)NO)ccc1C(=O)c1ccccc1
Select the item with the higher value of pIC50 from the options A and B listed. Refer to your chosen entry by its label in the reply.
B
(B: 6.60, A: 6.11)

###

- subject-of-test: Histone deacetylase 1 (Mus musculus)
- assay-remarks: Inhibition of mouse HDAC1
pIC50: −log10 of the molar value.
experimental-endpoint: pIC50

a: Cn1c(/C=C/C(=O)NO)ccc1C(=O)c1ccccc1
b: Cn1cc(/C=C/C(=O)NO)cc1C(=O)c1ccccc1
Please tell me which of the two, a or b , has the higher reported pIC50 value. Lab log: write the label of the selected item as the result.
a
(a: 6.64, b: 6.11)

###

- subject-of-test: Histone deacetylase HD2 (Zea mays, UniProt Q94F81)
- Sequence (Q94F81 whole entry): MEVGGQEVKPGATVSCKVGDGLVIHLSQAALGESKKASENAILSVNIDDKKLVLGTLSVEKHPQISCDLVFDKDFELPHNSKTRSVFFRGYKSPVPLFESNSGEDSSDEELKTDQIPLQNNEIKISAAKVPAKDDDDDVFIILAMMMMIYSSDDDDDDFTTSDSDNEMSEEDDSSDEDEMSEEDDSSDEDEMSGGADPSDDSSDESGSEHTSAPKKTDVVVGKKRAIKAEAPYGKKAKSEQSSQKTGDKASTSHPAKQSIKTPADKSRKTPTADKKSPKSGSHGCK
- assay-remarks: Inhibition of maize Histone deacetylase 2
experimental-endpoint: IC50 (nM)

1: Cn1cc(/C=C/C(=O)NO)cc1C(=O)c1ccccc1
2: Cn1c(/C=C/C(=O)NO)ccc1C(=O)c1ccccc1
Out of 1 and 2 , name the one with the higher IC50. Kindly give the label for the entry you pick.
2
